test system: NCI-H23 complex spheroids with HUVEC/MSC, viability; experiment: Anticancer human tumor NCI-H23 cell line growth inhibition [RAS]; settings: second compound 0.00949 µM; first compound 0.0316 µM; stronger effect = lower value;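 also: spheroids exposed to compound for 7 days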
Response field label: string, one of Satisfied (viability, T/C strictly below 20%) or Not satisfied.

{"columns": ["molecule", "qualitativeLabel"],
 "data": [
  ["C=CC(=O)N1CCN(c2nc(OCC3CCCN3C)nc3c(F)c(-c4nc(N)cc(C)c4C(F)(F)F)c(Cl)cc23)C(C)C1 (configuration not stated) + CCn1c(-c2cccnc2C(C)OC)c2c3cc(ccc31)N1CCOC(CC(NC(=O)C(C(C)C)N(C)C(=O)C3(F)CCN(C(=O)C#CC(C)(C)N(C)C)CC3)C(=O)N3CCCC(N3)C(=O)OCC(C)(C)C2)C1", "Not satisfied"],
  ["O=C(c1ccc(F)c(F)c1Nc1ccc(I)cc1F)N1CC(O)([C@@H]2CCCCN2)C1 + CCn1c(-c2cccnc2C(C)OC)c2c3cc(ccc31)N1CCOC(CC(NC(=O)C(C(C)C)N(C)C(=O)C3(F)CCN(C(=O)C#CC(C)(C)N(C)C)CC3)C(=O)N3CCCC(N3)C(=O)OCC(C)(C)C2)C1", "Not satisfied"],
  ["NC1c2ccccc2OC12CCN(c1cnc3c(N4CCCc5ncccc54)n[nH]c3n1)CC2 (configuration not stated) + CCn1c(-c2cc(N3CCN(C)CC3)cnc2C(C)OC)c2c3cc(ccc31)-c1csc(n1)CC(NC(=O)C1CC1C)C(=O)N1CCCC(N1)C(=O)OCC(C)(C)C2", "Satisfied"],
  ["CC(Nc1ccc2c(c1)OCCn1cc(N3C(=O)OCC3C(F)F)nc1-2)C(N)=O (configuration not stated) + CCn1c(-c2cccnc2C(C)OC)c2c3cc(ccc31)N1CCOC(CC(NC(=O)C(C(C)C)N(C)C(=O)C3(F)CCN(C(=O)C#CC(C)(C)N(C)C)CC3)C(=O)N3CCCC(N3)C(=O)OCC(C)(C)C2)C1", "Not satisfied"],
  ["CC(=O)OC12COC1CC(O)C1(C)C(=O)C(O)C3=C(C)C(OC(=O)C(O)C(NC(=O)OC(C)(C)C)c4ccccc4)CC(O)(C(OC(=O)c4ccccc4)C21)C3(C)C (configuration not stated) + CCn1c(-c2cccnc2C(C)OC)c2c3cc(ccc31)N1CCOC(CC(NC(=O)C(C(C)C)N(C)C(=O)C3(F)CCN(C(=O)C#CC(C)(C)N(C)C)CC3)C(=O)N3CCCC(N3)C(=O)OCC(C)(C)C2)C1", "Satisfied"],
  ["Nc1ccn(C2OC(CO)C(O)C2(F)F)c(=O)n1 (configuration not stated) + CCn1c(-c2cccnc2C(C)OC)c2c3cc(ccc31)N1CCOC(CC(NC(=O)C(C(C)C)N(C)C(=O)C3(F)CCN(C(=O)C#CC(C)(C)N(C)C)CC3)C(=O)N3CCCC(N3)C(=O)OCC(C)(C)C2)C1", "Satisfied"],
  ["C=CC(=O)N1CCN(c2nc(OCC3CCCN3C)nc3c(F)c(-c4nc(N)cc(C)c4C(F)(F)F)c(Cl)cc23)C(C)C1 (configuration not stated) + CCn1c(-c2cc(N3CCN(C)CC3)cnc2C(C)OC)c2c3cc(ccc31)-c1csc(n1)CC(NC(=O)C1CC1C)C(=O)N1CCCC(N1)C(=O)OCC(C)(C)C2", "Not satisfied"],
  ["CCC(CC)c1cc(NC2CCC(N)C2)n2nccc2n1 (configuration not stated) + CCn1c(-c2cc(N3CCN(C)CC3)cnc2C(C)OC)c2c3cc(ccc31)-c1csc(n1)CC(NC(=O)C1CC1C)C(=O)N1CCCC(N1)C(=O)OCC(C)(C)C2", "Not satisfied"],
  ["CC(C)NCC(C(=O)N1CCN(c2ncnc3c2C(C)CC3O)CC1)c1ccc(Cl)cc1 (configuration not stated) + CCn1c(-c2cccnc2C(C)OC)c2c3cc(ccc31)N1CCOC(CC(NC(=O)C(C(C)C)N(C)C(=O)C3(F)CCN(C(=O)C#CC(C)(C)N(C)C)CC3)C(=O)N3CCCC(N3)C(=O)OCC(C)(C)C2)C1", "Not satisfied"],
  ["Cc1nc(N2CCC3(CC2)COC(C)C3N)c(CO)nc1Sc1ccnc(N)c1Cl (configuration not stated) + CCn1c(-c2cc(N3CCN(C)CC3)cnc2C(C)OC)c2c3cc(ccc31)-c1csc(n1)CC(NC(=O)C1CC1C)C(=O)N1CCCC(N1)C(=O)OCC(C)(C)C2", "Not satisfied"],
  ["C=CC(=O)Nc1cc(Nc2nccc(-c3cn(C)c4ccccc34)n2)c(OC)cc1N(C)CCN(C)C + CCn1c(-c2cccnc2C(C)OC)c2c3cc(ccc31)N1CCOC(CC(NC(=O)C(C(C)C)N(C)C(=O)C3(F)CCN(C(=O)C#CC(C)(C)N(C)C)CC3)C(=O)N3CCCC(N3)C(=O)OCC(C)(C)C2)C1", "Not satisfied"],
  ["CC(C)n1nc(-c2ccc3oc(N)nc3c2)c2c(N)ncnc21 + CCn1c(-c2cc(N3CCN(C)CC3)cnc2C(C)OC)c2c3cc(ccc31)-c1csc(n1)CC(NC(=O)C1CC1C)C(=O)N1CCCC(N1)C(=O)OCC(C)(C)C2", "Satisfied"]
]}
